Target: Human LIGHT stably expressed on EL4 cells (EL4-LIGHT) (human) (UniProt O43557)
Sequence (O43557 whole entry): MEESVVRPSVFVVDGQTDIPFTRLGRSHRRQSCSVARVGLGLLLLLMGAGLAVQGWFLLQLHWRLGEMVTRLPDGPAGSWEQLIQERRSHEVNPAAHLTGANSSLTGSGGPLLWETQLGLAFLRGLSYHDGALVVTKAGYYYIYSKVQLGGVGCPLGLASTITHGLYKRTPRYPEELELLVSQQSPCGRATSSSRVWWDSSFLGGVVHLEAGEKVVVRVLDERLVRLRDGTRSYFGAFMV
Experiment: flow cytometry, EL4-LIGHT cells
For each entry below, report its EC50 value.
Output spec: scalar in nM, unitless text.

Exercise: Read the entry 3B04_var14 (antibody, V domains shown) VH: QVQLVQSGAEVKKPGASVKVSCKASGYTFTDYEMHWVRQAPGQGLEWIGEIDPETGDTAYSQKFQGRVTLTADKSTSTAYMEFSSLRSEDTAVYYCSRETDYFFDYWGQGTLVTVSS VL: DIQMTQSPSSLSASVGDRVTITCRASENIYGALNWYQQKPGKAPKLLIYGATNLAEGVPSRFSGSGSGRDYTLTISSLQPEDFATYYCQNVLTTPWTFGQGTKLEIKR and write its reported EC50.
Solution: 0.3

Exercise: Read the entry 3D12_var13 (antibody, V domains shown) VH: QVQLVQSGAEVKKPGASVKVSCKASDYTFTDSEIHWVRQAPGQGLEWIGEIDPETGGTAYNQKFKGRATLTADKSTSTAYMELSSLRSEDTAVYYCSRETDYFFDYWGQGTLVTVSS VL: DIQMTQSPSSLSASVGDRVTITCRASENIYGALNWYQQKPGKAPKLLIYGATNLAEGVPSRFSGSGSGRDYTLTISSLQPEDVATYYCQNVLSTPWTFGQGTKLEIKR and write its reported EC50.
Solution: 0.24

Exercise: Read the entry 3B04_var13 (antibody, V domains shown) VH: QVQLVQSGAEVKKPGASVKVSCKASGYTFTDYEMHWVRQAPGQGLEWIGEIDPETGDTAYSQKFKGRATLTADKSTSTAYMEFSSLRSEDTAVYYCSRETDYFFDYWGQGTLVTVSS VL: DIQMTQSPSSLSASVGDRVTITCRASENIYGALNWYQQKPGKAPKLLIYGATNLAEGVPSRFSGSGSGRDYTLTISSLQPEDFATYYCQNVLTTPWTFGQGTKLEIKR and write its reported EC50.
Solution: 0.32

Exercise: Read the entry 3D12_var14 (antibody, V domains shown) VH: QVQLVQSGAEVKKPGASVKVSCKASDYTFTDSEIHWVRQAPGQGLEWIGEIDPETGGTAYNQKFQGRVTLTADKSTSTAYMELSSLRSEDTAVYYCSRETDYFFDYWGQGTLVTVSS VL: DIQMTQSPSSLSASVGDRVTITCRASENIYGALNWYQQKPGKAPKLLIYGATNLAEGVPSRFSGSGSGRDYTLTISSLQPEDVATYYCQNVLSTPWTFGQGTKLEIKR and write its reported EC50.
Solution: 0.23

Exercise: Read the entry 3B04_var16 (antibody, V domains shown) VH: QVQLVQSGAEVKKPGASVKVSCKASGYTFTDYEMHWVRQAPGQGLEWMGEIDPETGDTAYAQKFQGRVTLTADKSTSTAYMELSSLRSEDTAVYYCSRETDYFFDYWGQGTLVTVSS VL: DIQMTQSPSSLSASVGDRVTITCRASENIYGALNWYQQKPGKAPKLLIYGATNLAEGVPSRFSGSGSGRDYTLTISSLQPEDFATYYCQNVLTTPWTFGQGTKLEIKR and write its reported EC50.
Solution: 0.24

Exercise: Read the entry 3D12_var15 (antibody, V domains shown) VH: QVQLVQSGAEVKKPGASVKVSCKASDYTFTDSEIHWVRQAPGQGLEWMGEIDPETGGTAYAQKFQGRVTLTADKSTSTAYMELSSLRSEDTAVYYCSRETDYFFDYWGQGTLVTVSS VL: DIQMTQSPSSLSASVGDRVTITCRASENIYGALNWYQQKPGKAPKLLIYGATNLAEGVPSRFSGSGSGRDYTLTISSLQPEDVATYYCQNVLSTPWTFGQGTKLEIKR and write its reported EC50.
Solution: 0.22

Exercise: Read the entry 3D12_var16 (antibody, V domains shown) VH: QVQLVQSGAEVKKPGASVKVSCKASGYTFTDSEMHWVRQAPGQGLEWMGEIDPETGGTAYAQKFQGRVTLTADKSTSTAYMELSSLRSEDTAVYYCSRETDYFFDYWGQGTLVTVSS VL: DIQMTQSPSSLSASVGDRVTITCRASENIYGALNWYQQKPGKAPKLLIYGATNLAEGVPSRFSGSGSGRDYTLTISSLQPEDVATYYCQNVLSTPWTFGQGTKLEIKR and write its reported EC50.
Solution: 0.26
